System: OV90
Experiment: Primary qHTS to identify gynecologic anti-cancer compounds using libraries of approved drugs and bioactive compounds (AID 1345084); note: % is set by controls: 0 for no effect and ±100 for the full control effect; nearly all actives have a fitted effect of over 55% in size
Conditions: Gynecologic cancer cell panel viability, ATPlite luminescence, 48 h; series mostly up to 57.5 µM
Inconclusive results are not listed. Activity calls are given as the source filed them. Calls come from the whole dose curve; as a rule, active = well fitted cell-killing curve with a large enough effect; inconclusive = small, poorly fitted or top-dose-only effect, or effect the other way; inactive = flat fitted curve, though single readings scatter.
// one of active, inactive, no free text

>>> print(df.to_string())
                                   compound  class_assignment
0  COc1ccc(C2(CNC(=O)[C@](C)(Cc3c[nH]c4ccccc34)NC(=O)Nc3ccc([N+](=O)[O-])cc3)CCCCC2)nc1          inactive

**Q:** // param item: COc1cc2ncnc(Nc3ccc(Oc4ccccc4)cc3)c2cc1OC ; yields the recorded call
**A:** inactive

**Q:** Now consider CC1CCC(n2c3cnccc3c3cnc(Nc4ccc5c(n4)CCN(C(=O)CO)C5)nc32)CC1 (centres undefined) .
**A:** inactive

----------
Tested on: CP211
Assay: qHTS profiling for inhibitors of Plasmodium falciparum proliferation (AID 504749); note: nearly all actives have a fitted effect of over 60% in size
Conditions: P. falciparum in erythrocytes, SYBR Green DNA, 72 h; series mostly up to 28.7 µM
Records with an inconclusive call do not appear. Calls of active or inactive are those of the source. Calls come from the whole dose curve; as a rule, active = well fitted inhibition curve with a large enough effect; inconclusive = small, poorly fitted or top-dose-only effect; inactive = flat fitted curve, though single readings scatter.
Tick one outcome: active, inactive

In [3]: df
Out[3]:
                                   compound  class_assignment
0  CC(C)(O)c1ccccc1CC[C@H](SCC1(CC(=O)O)CC1)c1cccc(/C=C/c2ccc3ccc(Cl)cc3n2)c1          inactive
1  COC(=O)[C@@H]1[C@@H]2C[C@H]3c4[nH]c5ccccc5c4CCN3C[C@@H]2CC[C@@H]1O          inactive
2  CCCCC(=O)N(Cc1ccc(-c2ccccc2-c2nn[nH]n2)cc1)C(C(=O)O)C(C)C (stereo unspecified)          inactive
3  CC(=O)[C@H]1CC[C@H]2C3CC=C4C[C@@H](O)CC[C@]4(C)C3CC[C@]12C (stereo partly specified)          inactive
4  CC(C)C[C@@H](NC(=O)[C@H](Cc1ccccc1)NC(=O)c1cnccn1)B(O)O            active

Turning now to a further compound:
**Q:** Which outcome was entered for the compound C[C@@H](C(=O)O)c1ccc(-c2ccccc2)c(F)c1 in this test?
**A:** inactive

----------
Parameter: max response. Scope: all listed entries.
Assay: qHTS Assay for Lipid Storage Modulators (AID 1519)
Settings: Drosophila S3 cells, BODIPY lipid droplet/cell ratio, laser cytometry; measured here: cell count channel max response; cells loaded with oleic acid
Results filed as inconclusive are left out.
Report the figure in % without appending any unit label.

>>> print(df.to_string())
                                   molecule  value_observed
0  C=C[C@@]1(C)CC(=O)[C@@]2(O)[C@@]3(C)[C@@H](O)CCC(C)(C)[C@@H]3[C@H](O)[C@H](OC(C)=O)[C@@]2(C)O1            13.9
1  NC(CCC(=O)NCS(=O)(=O)O)C(=O)O (stereo not given)            45.8
2     CC(=O)ON(C(C)=O)S(=O)(=O)c1ccc(Cl)cc1           -20.7
3      C[C@@](N)(C(=O)O)c1ccc(P(=O)(O)O)cc1           0.435
4  O=C1CC2(CCCC2)CC(=O)N1CCNC[C@H]1COc2ccccc2O1            16.6

**Q:** # lookup: max response of CCCn1c(=O)c2[nH]c(-c3ccc(OCC(=O)Nc4ccc(C(C)=O)cc4)cc3)nc2n(CCC)c1=O
**A:** 6.38

**Q:** Same lookup for N[C@H]1CCN(O)C1=O , please.
**A:** -8.46

**Q:** Same question, O=C(O)CCC/C=C\C[C@@H]1CO[C@H](C(F)(F)F)O[C@@H]1c1ccccc1O this time
**A:** -8.58

**Q:** Ok, now CC(C)(C)NC[C@H](O)c1ccc(O)c(CO)c1
**A:** -16.6

**Q:** Now try C[C@@](N)(C(=O)O)c1ccc(S(=O)(=O)O)cc1 .
**A:** 9.59

----------
Target: Catechol O-methyltransferase (Homo sapiens)
Test: Confirmatory Screen for Target Class Profiling of Small Molecule Inhibitors of Methyltransferases (AID 1745852)
Details: MTase-Glo luminescence, SAH detection, recombinant enzyme; measured here: COMT max response; stronger effect = lower value
reported endpoint: activity (%)
Note: unit % is implicit; provide only the numeric part.

Answered cases to consult:
In [3]: df
Out[3]:
                                   compound  value_observed
0  O=C1c2ccccc2-c2nc3nnnn3nc21 (tested in a mixture with another compound)           -95.2
1  C=CC(=O)Nc1cccc(Nc2nc(Nc3ccc(Oc4ccnc(C(=O)NC)c4)cc3)ncc2F)c1           -5.97
2  O=[N+]([O-])c1ccc(-[n+]2nc(-c3ccccc3)nn2-c2ccc(I)cc2)cc1           -47.4

**Q:** So what does the record say about activity for C=C1C(=O)O[C@@H]2CC(C)=C([C@@H](C)CCCO)[C@@H](OC(=O)C(C)C)[C@H]12 ?
**A:** -63.9

**Q:** What would you report for S=c1ssc2c1CCC2 ?
**A:** -2.41

**Q:** Again, but for O=C(O)c1ccc(O)c2ncc(N3CCCN(CCc4cccc5ccccc45)CC3)cc12
**A:** 15.8

**Q:** Try this compound too: CC1CCN(C(c2ccc(F)cc2)c2ccc(C(C)C(=O)O)cc2-c2ccc(C(F)(F)F)cc2)CC1 (centres undefined)
**A:** 4.19

**Q:** Can you handle Oc1cc2c(c(Cl)c1O)CCNCC2c1ccccc1 (centres undefined) next?
**A:** 72.9

**Q:** // repeat for Nc1ccc(-c2cnc(N)c(-c3ccc(Cl)cc3)c2)cn1 and report
**A:** -71.5

----------
Assay: Primary qHTS for inhibitors of nuclear receptor binding SET domain protein 2 (NSD2) in an RCH-ACV wild type WT cells (2C) (AID 1645877); note: nearly all actives have a fitted effect of over 70% in size
Conditions: RCH-ACV (leukaemia line) NSD2 WT (2C) viability, CellTiter-Glo, 72 h; series mostly up to 44.9 µM
Records with an inconclusive call do not appear. The source made the active and inactive calls. The call rests on the fitted dose curve; in most records, active means well fitted inhibition curve with a large enough effect; inconclusive means small, poorly fitted or top-dose-only effect; inactive means no such curve, though single readings can be large or run the other way.
Your reply should match one of these outcome classes. active, inactive

Worked cases, answers included:
molecule	class assignment
CC/C(=C(/CC)c1ccc(O)c(CN(CC)CC)c1)c1ccc(O)c(CN(CC)CC)c1	active
Cc1cn([C@H]2C[C@H](O)[C@@H](CO)O2)c(=O)nc1N	inactive
C=C1C(=O)O[C@@H]2C[C@@]3(C)CCC[C@H](C)C3=C[C@H]12	active

**Q:** For O=C(NCCO)c1cc(C(=O)NCCO)cc(C(=O)NCCO)c1 , what call appears in the results of this test?
**A:** inactive

**Q:** COc1ccc(Cl)cc1[C@@]1(F)C(=O)Nc2cc(C(F)(F)F)ccc21 ?
**A:** active

**Q:** Could you do the same for CC(C)n1cc(-c2ccc(Oc3ccccc3)cc2)c2c(N)ncnc21 , please?
**A:** active

**Q:** Queued: CCc1c(C(=O)NNC(=O)[C@@H](O)c2cc(F)cc(F)c2)ccc(O)c1C
**A:** inactive

**Q:** // same read-out, input: Cc1cc(C)c(-c2csc(NC(=O)c3ccccc3)n2)c(C)c1
**A:** active

**Q:** Input CN1CCCN(C(=O)c2cccc(-c3ccc(/C=C4\C(=O)Nc5ccc(Cl)cc54)o3)c2)CC1
**A:** active

**Q:** // same read-out, input: CC[C@@H](C)[C@H]1C(=O)O[C@H](C(C)C)C(=O)N(C)[C@@H](C(C)C)C(=O)O[C@H](C(C)C)C(=O)N(C)[C@@H](C(C)C)C(=O)O[C@H](CC(C)C)C(=O)N1C
**A:** active

**Q:** Check CN(c1ccc(NC(=O)Nc2ccc(OC(F)(F)F)cc2)cc1)c1ccnc(Nc2cccc(S(N)(=O)=O)c2)n1 too.
**A:** active

----------
Assay: Confirmatory qHTS for small molecule stabilizers of the endoplasmic reticulum resident proteome: Secreted ER Calcium Modulated Protein (SERCaMP) assay (AID 1508628); note: nearly all actives have a fitted effect of over 40% in size
Conditions: SERCaMP secreted luciferase ER calcium/proteostasis reporter; series mostly up to 76.3 µM
Inconclusive results are not listed. Calls of active or inactive are those of the source. Calls come from the whole dose curve; as a rule, active = well fitted inhibition curve with a large enough effect; inconclusive = small, poorly fitted or top-dose-only effect; inactive = no such curve, though single readings can be large or run the other way.
Respond using exactly one of the listed classes: Yes = active, No = inactive

Here's what some known entries look like.
>>> print(df.to_string())
                              smiles_string  class_assignment
0        Oc1ccc(Nc2nc(-c3ccc(Cl)cc3)cs2)cc1               Yes
1       CCN(CC)CCCCN1c2ccccc2Oc2ccc(Cl)cc21                No
2  COc1cccc(CCc2ccccc2OCC[C@@H]2C[C@@H](O)CN2C)c1                No
3  N[C@@H](Cc1cc(CP(=O)(O)O)cc(-c2ccccc2Cl)c1)C(=O)O                No
4  C[C@@H](NCc1cc(Br)cc2[nH]c(=O)c(=O)[nH]c12)P(=O)(O)O                No
5  Cc1cc(C)c(N(Cc2ccccc2)S(=O)(=O)c2ccc(OCCNC(=O)c3cc4ccccc4o3)cc2)c(C(=O)NO)c1                No

**Q:** What did this assay record as the result for CC(C)C[C@H]1C(=O)N2CCC[C@@H]2[C@]2(O)O[C@](NC(=O)[C@@H]3C=C4c5cccc6[nH]c(Br)c(c56)C[C@H]4N(C)C3)(C(C)C)C(=O)N12 ?
**A:** Yes

**Q:** Can you handle Oc1cc2c(cc1O)[C@H](c1ccccc1)CNCC2 next?
**A:** No

**Q:** One more compound: CSc1ccc2c(c1)[C@H](N1CCN(C)CC1)Cc1ccccc1S2
**A:** Yes
